Below, each of the molecules is paired with its reported IC50 value.
# Test system: NIH3T3
# Assay: Antiproliferative activity against mouse NIH/3T3 cells after 72 hrs by MTT assay
# Type: cell-based
# Test conditions: NIH3T3, 72 h
Write it as a number; the unit µM goes unstated.

The examples below pair each entry with its known result.
- Smiles record: "O=c1[nH]c(=O)n(Cc2cn(-c3ccccc3F)nn2)cc1Br"
  Readout number: 59.3
- Smiles record: "O=c1[nH]c(=O)n(Cc2cn(-c3ccc(Cl)cc3)nn2)cc1Br"
  Readout number: 6.7

Now let's try a different one.
Task item: Which measured IC50 value corresponds to O=c1[nH]c(=O)n(Cc2cn(-c3ccc(F)cc3)nn2)cc1Br ?
Reply: 50.8

###

# Tested on: A549
# Assay: Antiproliferative activity against human A549 cells after 72 hrs by MTT assay
# Type: functional, cell-based
# Test conditions: A549, 72 h
Below, each of the molecules is paired with its reported pIC50 value.
Scale: negative log10 of molar concentration, which is what pIC50 denotes.

- Smiles record: "O=c1[nH]c(=O)n(Cc2cn(-c3ccccc3F)nn2)cc1I"
  pIC50: 4.02

Task item: Which measured pIC50 value corresponds to O=c1c(Br)cn(Cc2cn(-c3cc(Cl)cc(Cl)c3)nn2)c(=O)n1Cc1cn(-c2cc(Cl)cc(Cl)c2)nn1 ?
Reply: 4.02

Task item: Which measured pIC50 value corresponds to O=c1nc2oc(CCCCl)cc2cn1Cc1cn(Cc2ccccc2)nn1 ?
Reply: 4.55

###

# Assay: Mitochondrial toxicity in human HepG2 cells grown in presence of galactose
# Format: cell-based
Below, each of the molecules is paired with its reported pIC50 value.
Scale: negative log10 of molar concentration, which is what pIC50 denotes.

The examples below pair each entry with its known result.
- Smiles record: "O=c1c(Br)cn(Cc2cn(-c3ccccc3F)nn2)c(=O)n1Cc1cn(-c2ccccc2F)nn1"
  Measured property: "pIC50"
  Readout number: 5.33
- Smiles record: "O=c1c(Br)cn(Cc2cn(-c3ccc(F)cc3)nn2)c(=O)n1Cc1cn(-c2ccc(F)cc2)nn1"
  Measured property: "pIC50"
  Readout number: 5.34

Now let's try a different one.
Task item: Which measured pIC50 value corresponds to O=c1c(Br)cn(Cc2cn(-c3ccc(Cl)cc3)nn2)c(=O)n1Cc1cn(-c2ccc(Cl)cc2)nn1 ?
Reply: 5.15

###

# Assay: Mitochondrial toxicity in human HepG2 cells grown in presence of glucose
# Type: cell-based
Below, each of the compounds is paired with its reported IC50 value.
Write it as a number; the unit µM goes unstated.

The examples below pair each entry with its known result.
- Smiles record: "O=c1c(Br)cn(Cc2cn(-c3ccc(F)cc3)nn2)c(=O)n1Cc1cn(-c2ccc(F)cc2)nn1"
  IC50 / µM: 4.78
- Smiles record: "O=c1c(Br)cn(Cc2cn(-c3ccccc3F)nn2)c(=O)n1Cc1cn(-c2ccccc2F)nn1"
  IC50 / µM: 7.11

Now let's try a different one.
Task item: Which measured IC50 value corresponds to O=c1c(Br)cn(Cc2cn(-c3ccc(Cl)cc3)nn2)c(=O)n1Cc1cn(-c2ccc(Cl)cc2)nn1 ?
Reply: 3.82

###

# System: A549
# Assay: Antiproliferative activity against human A549 cells after 72 hrs by MTT assay
# Format: functional, cell-based
# Test conditions: A549, 72 h
Measured property: pIC50
Scale: negative log10 of molar concentration, which is what pIC50 denotes.

The examples below pair each entry with its known result.
- Compound: "O=c1[nH]cc(F)c(=O)[nH]1 [FLUOROURACIL]"
  Assayed target: "A549"
  pIC50: 5.55
- Compound: "C#CCn1c(=O)c(I)cn(Cc2cn(-c3ccccc3F)nn2)c1=O"
  Assayed target: "A549"
  pIC50: 4.25
- Compound: "O=c1nc2oc(C3CC3)cc2cn1Cc1cn(-c2ccc(Cl)cc2)nn1"
  Assayed target: "A549"
  pIC50: 4.22
- Compound: "O=c1c(Br)cn(Cc2cn(-c3ccc(F)cc3)nn2)c(=O)n1Cc1cn(-c2ccc(F)cc2)nn1"
  Assayed target: "A549"
  pIC50: 4.59

Now let's try a different one.
Task item: Which measured pIC50 value corresponds to O=c1c(I)cn(Cc2cn(-c3ccccc3F)nn2)c(=O)n1Cc1cn(-c2ccccc2F)nn1 ?
Reply: 4.27
